molecular target: ROCK2 (Homo sapiens (Human), UniProt O75116); test: Z'Lyte assay, ROCK2 inhibition at a single concentration; type: biochemical; details: read-out: % inhibition (ROCK2) 1 uM, 1 uM
Sequence (O75116 whole entry): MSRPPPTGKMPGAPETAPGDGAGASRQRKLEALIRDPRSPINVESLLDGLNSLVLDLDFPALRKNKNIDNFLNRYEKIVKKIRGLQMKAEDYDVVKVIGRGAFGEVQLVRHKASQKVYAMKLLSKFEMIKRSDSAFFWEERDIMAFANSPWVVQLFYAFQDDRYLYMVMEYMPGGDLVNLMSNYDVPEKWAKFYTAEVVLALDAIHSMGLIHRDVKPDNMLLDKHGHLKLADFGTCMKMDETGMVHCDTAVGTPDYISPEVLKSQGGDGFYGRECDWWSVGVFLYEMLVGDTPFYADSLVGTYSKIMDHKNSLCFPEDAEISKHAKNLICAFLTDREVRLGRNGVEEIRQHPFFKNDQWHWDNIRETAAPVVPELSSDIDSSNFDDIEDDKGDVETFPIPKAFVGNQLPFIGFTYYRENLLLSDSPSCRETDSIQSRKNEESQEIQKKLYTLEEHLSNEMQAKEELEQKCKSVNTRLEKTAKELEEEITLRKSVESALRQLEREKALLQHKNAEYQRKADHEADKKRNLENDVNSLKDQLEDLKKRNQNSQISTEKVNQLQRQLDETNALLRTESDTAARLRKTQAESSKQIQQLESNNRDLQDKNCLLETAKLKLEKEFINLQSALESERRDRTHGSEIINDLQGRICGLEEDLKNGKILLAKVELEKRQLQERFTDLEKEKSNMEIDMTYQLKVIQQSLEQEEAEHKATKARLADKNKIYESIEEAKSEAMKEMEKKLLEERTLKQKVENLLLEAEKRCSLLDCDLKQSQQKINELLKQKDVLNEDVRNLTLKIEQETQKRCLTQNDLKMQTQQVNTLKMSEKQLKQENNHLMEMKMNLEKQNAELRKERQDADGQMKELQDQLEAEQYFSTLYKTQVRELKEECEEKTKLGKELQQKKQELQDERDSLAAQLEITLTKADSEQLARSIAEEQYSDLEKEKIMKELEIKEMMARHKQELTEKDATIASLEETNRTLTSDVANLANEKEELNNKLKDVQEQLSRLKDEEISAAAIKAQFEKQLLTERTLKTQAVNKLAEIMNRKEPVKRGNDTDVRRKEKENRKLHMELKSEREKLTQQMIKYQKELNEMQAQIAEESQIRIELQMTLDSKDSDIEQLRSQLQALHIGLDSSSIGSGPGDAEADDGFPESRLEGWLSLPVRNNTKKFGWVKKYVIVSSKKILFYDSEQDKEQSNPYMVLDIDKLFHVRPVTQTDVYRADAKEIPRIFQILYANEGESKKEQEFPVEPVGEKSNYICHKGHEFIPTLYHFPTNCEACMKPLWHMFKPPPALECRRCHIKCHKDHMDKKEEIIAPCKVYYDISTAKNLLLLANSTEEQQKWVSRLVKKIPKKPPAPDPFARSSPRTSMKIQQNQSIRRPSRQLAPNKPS
inhibition at 1 µM: recorded values

smiles-repr: COc1cccc(NC(=O)N2CC=C(c3ncnc4[nH]c5c(c34)CCC5)CC2)c1
inhibition at 1 µM [%]: 18
--
smiles-repr: N#Cc1cccc(NC(=O)N2CC=C(c3ncnc4[nH]c5c(c34)CCC5)CC2)c1
inhibition at 1 µM [%]: 20
--
smiles-repr: COc1cccc(Oc2cccc(NC(=O)N3CC=C(c4ncnc5[nH]cc(C6CC6)c45)CC3)c2)c1
inhibition at 1 µM [%]: 11
--
smiles-repr: COc1ccc(-c2cccc(NC(=O)N3CC=C(c4ncnc5[nH]c6c(c45)CCC6)CC3)c2)cc1
inhibition at 1 µM [%]: 11
--
smiles-repr: Cc1c[nH]c2ncnc(C3=CCN(C(=O)Nc4cccc(Oc5cccnc5)c4)CC3)c12
inhibition at 1 µM [%]: 72
--
smiles-repr: CNC(=O)c1cc(Oc2ccc(NC(=O)N3CC=C(c4ncnc5[nH]cc(C)c45)CC3)cc2)ccn1
inhibition at 1 µM [%]: 12
--
smiles-repr: Cc1c[nH]c2ncnc(C3=CCN(C(=O)Nc4cccc(-c5cccc(OCCCNC(=O)OC(C)(C)C)c5)c4)CC3)c12
inhibition at 1 µM [%]: 2
